Every entry's value here was drawn from paper PMC10531311.

Assay: PAMPA blood brain barrier permeability
Format: in vitro ADME
Conditions: 100 μM in PBS, 5 h, room temperature, triplicate, read-out: Pe ± SD
Papp at 5 h, 100 μM for assorted compounds

compound	Papp at 5 h, 100 μM (×10⁻⁶ cm/s)
Cn1c(=O)c2c(ncn2C)n(C)c1=O [Caffeine, reference compound]	6.57
C#CCn1c(=O)c2c(nc(NCc3c(F)cccc3Cl)n2C)n(C)c1=O [compound 22]	0.37
C#CCn1c(=O)c2c(nc(NCc3ccccc3Cl)n2C)n(C)c1=O [compound 19]	3.13
C#CCn1c(=O)c2c(nc(NCc3cccc(Br)c3)n2C)n(C)c1=O [compound 24]	0.89

* * *

Experiment: PAMPA blood brain barrier permeability
Assay type: in vitro ADME
Drug Retention for assorted molecules

molecule	Drug Retention
C#CCn1c(=O)c2c(nc(NCc3cccc(Br)c3)n2C)n(C)c1=O [compound 24]	93.30%
C#CCn1c(=O)c2c(nc(NCc3ccccc3Cl)n2C)n(C)c1=O [compound 19]	51.78%
C#CCn1c(=O)c2c(nc(NCc3c(F)cccc3Cl)n2C)n(C)c1=O [compound 22]	68.62%
Cn1c(=O)c2c(ncn2C)n(C)c1=O [Caffeine, reference compound]	29.46%

* * *

Target: human MAO B (Homo sapiens)
Sequence (P27338 whole entry): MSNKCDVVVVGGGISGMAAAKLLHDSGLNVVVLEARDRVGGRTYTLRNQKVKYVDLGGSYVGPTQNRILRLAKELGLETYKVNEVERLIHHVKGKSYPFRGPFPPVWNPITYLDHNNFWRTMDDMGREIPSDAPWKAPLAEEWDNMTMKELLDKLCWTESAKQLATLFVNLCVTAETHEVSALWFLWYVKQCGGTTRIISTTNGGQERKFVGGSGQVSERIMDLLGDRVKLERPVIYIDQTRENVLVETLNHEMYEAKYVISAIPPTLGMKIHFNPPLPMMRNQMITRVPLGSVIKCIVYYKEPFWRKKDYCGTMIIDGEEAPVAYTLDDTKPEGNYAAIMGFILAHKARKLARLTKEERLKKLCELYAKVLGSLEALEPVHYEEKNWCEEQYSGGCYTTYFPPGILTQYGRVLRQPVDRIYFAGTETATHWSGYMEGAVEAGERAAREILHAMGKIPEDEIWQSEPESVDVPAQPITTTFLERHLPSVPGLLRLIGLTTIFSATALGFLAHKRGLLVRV
Experiment: Human MAO B inhibition, fluorometric method
Format: biochemical
Details: mean of two independent experiments, read-out: % of hMAO B Inhibition at 1 µM
Protocol: The compounds were tested twice in duplicates at a concentration of 1 μM by fluorometric method as previously described. Paratyramine (200 μM) was used as a substrate for the enzyme. Safinamide (1 μM; reversible) and rasagiline (1 μM; irreversible) were used as reference inhibitors.
readout_type: inhibition at 1 µM

CCCn1c(=O)c2c(nc(NCc3c(F)cccc3Cl)n2C)n(C)c1=O 9%
CCCn1c(=O)c2c(nc(NCc3cccc(Br)c3)n2C)n(C)c1=O 11%
C#CCn1c(=O)c2c(nc(NCc3c(F)cccc3Cl)n2C)n(C)c1=O 7%
C#CCn1c(=O)c2c(nc(NCc3cccc(Br)c3)n2C)n(C)c1=O 10%
CCCn1c(=O)c2c(nc(NCc3ccc(OC)c(OC)c3)n2C)n(C)c1=O 2%

* * *

Experiment: Metabolic stability in human liver microsomes
Format: in vitro ADME
Conditions: human, liver microsomes; after 120 min of incubation with HLMs; read-out: % Remaining in the Reaction Mixture
remaining at 2 h for assorted molecules

molecule	remaining at 2 h
C#CCn1c(=O)c2c(nc(NCc3c(F)cccc3Cl)n2C)n(C)c1=O [compound 22]	> 90%
C#CCn1c(=O)c2c(nc(NCc3ccccc3Cl)n2C)n(C)c1=O [compound 19]	> 95%
C#CCn1c(=O)c2c(nc(NCc3cccc(Br)c3)n2C)n(C)c1=O [compound 24]	> 95%

* * *

Target: human adenosine A2BR (Homo sapiens, UniProt P29275)
Construct: expressed in transfected cells; host or cells: CHO cells
Sequence (P29275 whole entry): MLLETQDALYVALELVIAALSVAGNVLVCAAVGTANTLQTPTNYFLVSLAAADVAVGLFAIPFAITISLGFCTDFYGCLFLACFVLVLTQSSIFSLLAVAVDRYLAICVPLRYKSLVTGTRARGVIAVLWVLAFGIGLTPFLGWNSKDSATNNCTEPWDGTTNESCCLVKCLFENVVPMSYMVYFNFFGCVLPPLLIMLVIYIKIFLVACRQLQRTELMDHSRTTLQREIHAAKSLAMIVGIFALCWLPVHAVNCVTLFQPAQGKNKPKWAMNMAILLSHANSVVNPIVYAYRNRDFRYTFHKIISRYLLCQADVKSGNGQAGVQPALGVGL
Experiment: Radioligand binding at human adenosine A2B receptor vs. [3H]PSB-603
Settings: 1 µM; CHO cells; read-out: A2BR vs. [³H]PSB-603 % Inhibition ± SEM at 1 µM
inhibition at 1 µM for assorted compounds

compound	inhibition at 1 µM, %
CCCn1c(=O)c2c(nc(NCc3ccccc3Br)n2C)n(C)c1=O [compound 12]	33
C#CCn1c(=O)c2c(nc(NCc3ccc(OC)c(OC)c3)n2C)n(C)c1=O [compound 26]	28
CCCCn1c(=O)c2c(nc(NCc3ccccc3Cl)n2C)n(C)c1=O [compound 6]	32
CCCn1c(=O)c2c(nc(NCc3ccccc3F)n2C)n(C)c1=O [compound 13]	21
Cn1c(NCc2ccccc2Cl)nc2c1c(=O)n(Cc1ccc(Cl)cc1)c(=O)n2C [compound 10]	14
CCCn1c(=O)c2c(nc(NCc3cccc(OC)c3)n2C)n(C)c1=O [compound 17]	20
CCCn1c(=O)c2c(nc(NCc3cccc(Br)c3)n2C)n(C)c1=O [compound 16]	30
CCCn1c(=O)c2c(nc(NCc3cccc(Cl)c3)n2C)n(C)c1=O [compound 15]	34
CCCn1c(=O)c2c(nc(NCc3ccc(OC)c(OC)c3)n2C)n(C)c1=O [compound 18]	17
C#CCn1c(=O)c2c(nc(NCc3c(F)cccc3Cl)n2C)n(C2CC2)c1=O [compound 29]	16
C#CCn1c(=O)c2c(nc(NCc3cccc(Br)c3)n2C)n(C)c1=O [compound 24]	25
